assay: Tolerability in Sprague-Dawley rats: kidney function (Example 23); format: in vivo
metric: creatinine (mg/dL)

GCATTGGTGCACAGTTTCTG (antisense; all C 5-methyl, all phosphorothioate, sugars by position not given here; MOE gapmer, 5-10-5) [ISIS 412224, 5-10-5 MOE gapmer] ... 44
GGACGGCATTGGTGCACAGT (antisense; all C 5-methyl, all phosphorothioate, sugars by position not given here; MOE gapmer, 5-10-5) [ISIS 413482, 5-10-5 MOE gapmer] ... 34
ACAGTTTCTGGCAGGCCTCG (antisense; all C 5-methyl, all phosphorothioate, sugars by position not given here; MOE gapmer, 5-10-5) [ISIS 412223, 5-10-5 MOE gapmer] ... 46
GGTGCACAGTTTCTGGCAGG (all C 5-methyl, all phosphorothioate, sugars by position not given here; MOE gapmer) [ISIS 413481, 5-10-5 MOE gapmer] ... 45
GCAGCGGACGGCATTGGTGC (antisense; all C 5-methyl, all phosphorothioate, sugars by position not given here; MOE gapmer, 5-10-5) [ISIS 412225, 5-10-5 MOE gapmer] ... 58

###

test system: human Factor XI mRNA; assay: Dose-dependent inhibition in HepG2 cells, electroporation (Example 4); type: cell-based; conditions: 20 μM, 16 hours
In the oligonucleotide strings, read from the 5' end, every base follows the letter of its sugar. An asterisk marks phosphorothioate; unmarked linkages are phosphodiester. Other units and linkages are bracketed, terminal groups are in braces. A string of capitals states the bases alone. e = 2'-O-(2-methoxyethyl) (MOE); [5mC] = 5-methylcytosine; d = 2'-deoxy (DNA)
Binary classification by percent inhibition of Factor XI mRNA, relative to untreated control cells, with 90% as an inclusive lower bound for true; all other cases are false.

416973 (antisense eT*eT*dA*dT*dG*d[5mC]*d[5mC]*d[5mC]*dT*dT*d[5mC]*dA*dT*dG*dT*e[5mC]*eT*eA*eG*eG) [compound 416973] ... true
416924 (antisense eG*eT*eG*d[5mC]*dA*d[5mC]*dA*dG*dT*dT*dT*d[5mC]*dT*dG*dG*d[5mC]*dA*eG*eG*e[5mC]) [compound 416924] ... false
416926 (antisense eT*eG*eG*dT*dG*d[5mC]*dA*d[5mC]*dA*dG*dT*dT*dT*d[5mC]*dT*dG*dG*e[5mC]*eA*eG) [compound 416926] ... true
416838 (antisense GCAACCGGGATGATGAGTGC; 5-10-5 gapmer, wing sugar chemistry not given here, further chemistry not given here) [compound 416838] ... false
413474 (antisense eA*eG*e[5mC]*eA*eA*d[5mC]*d[5mC]*dG*dG*dG*dA*dT*dG*dA*dT*eG*eA*eG*eT*eG) [compound 413474] ... false
412206 (antisense e[5mC]*e[5mC]*eG*eT*eG*d[5mC]*dA*dT*d[5mC]*dT*dT*dT*d[5mC]*dT*dT*eG*eG*e[5mC]*eA*eT) [compound 412206] ... true
416985 (antisense eG*e[5mC]*dA*dA*d[5mC]*d[5mC]*dG*dG*dG*dA*dT*dG*dA*dT*dG*eA*eG*eT*eG*e[5mC]) [compound 416985] ... false
416989 (antisense eG*eA*dG*dA*dT*dT*d[5mC]*dT*dT*dT*dG*dG*dG*d[5mC]*d[5mC]*eA*eT*eT*e[5mC]*e[5mC]) [compound 416989] ... true
413476 (antisense eT*eT*eG*eA*eG*dA*dT*dT*d[5mC]*dT*dT*dT*dG*dG*dG*e[5mC]*e[5mC]*eA*eT*eT) [compound 413476] ... true
